molecular target: mushroom tyrosinase (Agaricus bisporus); assay: Tyrosinase inhibition assay (L-DOPA oxidation, absorbance at 492 nm); type: biochemical; settings: substrate L-DOPA; PBS pH 6.8, 25 °C; highest tested concentration 500 µM; mean ± SD, n = 3; read-out: IC50
pIC50: −log10 of the molar value.
endpoint: pIC50

COc1ccc(-c2oc3cc(O)cc(O)c3c(=O)c2OC)cc1 [Compound 33, ermanin]    3.64

P: CC1OC(OCC2OC(Oc3c(-c4ccc(O)c(O)c4)oc4cc(OC5OC(CO)C(O)C(O)C5O)cc(O)c4c3=O)C(O)C(O)C2O)C(O)C(O)C1O (stereo not shown) [Compound 38, quercetin 3-O-rutinoside-7-O-glucoside]
Q: O=c1cc(-c2ccc(O)c(O)c2)oc2cc(O)cc(O)c12 [Compound 17, luteolin]
Pick one: P or Q . Which has the bigger pIC50 number? Let me know the label of the one you choose.
Q

---

biological target: mushroom tyrosinase (Agaricus bisporus, UniProt C7FF04); test: Tyrosinase inhibition assay (L-DOPA oxidation, absorbance at 492 nm); type: biochemical
Sequence (C7FF04 1-392): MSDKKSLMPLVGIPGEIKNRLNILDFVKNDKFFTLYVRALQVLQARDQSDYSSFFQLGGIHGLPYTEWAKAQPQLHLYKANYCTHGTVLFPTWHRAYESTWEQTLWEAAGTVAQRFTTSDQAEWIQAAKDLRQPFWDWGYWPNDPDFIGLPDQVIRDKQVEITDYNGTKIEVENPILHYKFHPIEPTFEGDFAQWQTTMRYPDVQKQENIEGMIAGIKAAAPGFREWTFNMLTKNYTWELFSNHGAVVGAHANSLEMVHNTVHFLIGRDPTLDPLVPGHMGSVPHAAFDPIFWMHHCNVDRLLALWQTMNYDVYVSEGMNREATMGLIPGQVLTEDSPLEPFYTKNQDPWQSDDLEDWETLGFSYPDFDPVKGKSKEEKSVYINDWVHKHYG
endpoint: IC50 (µM)
Write the value in µM as a bare number.

Worked cases, answers included:
O=c1cc(-c2ccc(O)cc2)oc2c([C@@H]3O[C@H](CO)[C@@H](O)[C@H](O)[C@H]3O)c(O)cc(O)c12 [Compound 14, apigenin 8-C-glucoside]    133
O=C(/C=C/c1ccc(O)cc1)OC[C@H]1O[C@@H](Oc2c(-c3ccc(O)cc3)oc3cc(O)cc(O)c3c2=O)[C@H](O)[C@@H](O)[C@@H]1O    78.5

# evaluate next
So what's the measured IC50 for this one? O=c1cc(-c2ccc(O)cc2)oc2cc(OC3OC(CO)C(O)C(O)C3O)cc(O)c12 (stereo not drawn) [Compound 13, apigenin 7-O-glucoside]
323

---

molecular target: mushroom tyrosinase (Agaricus bisporus, UniProt C7FF04); assay: Tyrosinase inhibition assay (L-DOPA oxidation, absorbance at 492 nm); type: biochemical
endpoint: IC50 (µM)
Write the value in µM as a bare number.

Worked cases, answers included:
O=c1cc(-c2ccc(O)c(O)c2)oc2cc(OC3OC(CO)C(O)C(O)C3O)cc(O)c12 (centres unmarked) [Compound 18, luteolin 7-O-glucoside]    415
O=c1c(OC2OC(CO)C(O)C(O)C2O)c(-c2ccc(O)cc2)oc2cc(O)cc(O)c12 (centres unmarked) [Compound 31, kaempferol 3-O-galactoside]    187
O=C(O)C1OC(Oc2c(-c3ccc(O)c(O)c3)oc3cc(O)cc(O)c3c2=O)C(O)C(O)C1O (centres unmarked) [Compound 36, quercetin 3-O-glucuronide]    220
O=c1cc(-c2ccc(O)c(O)c2)oc2cc(O)c([C@@H]3O[C@H](CO)[C@@H](O)[C@H](O)[C@H]3O)c(O)c12 [Compound 20, luteolin-6-C-glucoside]    133
O=c1c(O)c(-c2cc(O)c(O)c(O)c2)oc2cc(O)ccc12 [Compound 41, robinetin]    63.1

So what's the measured IC50 for this one? COc1ccc(-c2cc(=O)c3c(O)cc(O)cc3o2)cc1 [Compound 16, acacetin]
208

COc1cccc(OC)c1-c1cc(=O)c2c(O)cccc2o1 [Compound 9, 5-hydroxy-2′,6′-dimethoxyflavone] ?
127

O=c1cc(-c2ccccc2)oc2cc(O)cc(O)c12 [Compound 11, chrysin] ?
129

COc1ccccc1-c1cc(=O)c2c(O)cccc2o1 [Compound 8, 5-hydroxy-2′-methoxyflavone] ?
122

COc1ccc([C@@H]2CC(=O)c3c(O)cc(O)cc3O2)cc1O [Compound 5, hesperetin] ?
237

O=c1cc(-c2ccc(O)cc2)oc2cc(O)cc(O)c12 [Compound 12, apigenin] ?
161

C[C@@H]1O[C@@H](OC[C@H]2O[C@@H](Oc3c(-c4ccc(O)c(O)c4)oc4cc(O)cc(O)c4c3=O)[C@H](O)[C@@H](O)[C@@H]2O)[C@H](O)[C@H](O)[C@H]1O [Compound 37, quercetin 3-O-rutinoside] ?
142

O=c1c(O[C@@H]2O[C@H](CO)[C@@H](O)[C@H](O)[C@H]2O)c(-c2ccc(O)cc2)oc2cc(O)cc(O)c12 [Compound 29, kaempferol 3-O-glucoside] ?
482

---

molecular target: mushroom tyrosinase (Agaricus bisporus, UniProt C7FF04); test: Tyrosinase inhibition assay (L-DOPA oxidation, absorbance at 492 nm); type: biochemical; details: substrate L-DOPA; PBS pH 6.8, 25 °C; highest tested concentration 500 µM; mean ± SD, n = 3; read-out: IC50
pIC50: −log10 of the molar value.
endpoint: pIC50

1: COc1c(O)cc(O)c2c(=O)c(O)c(-c3ccc(O)cc3)oc12 [Compound 27, 8-methoxykaempferol]
2: COc1ccc(-c2oc3c(CC=C(C)C)c(O[C@@H]4O[C@H](CO)[C@@H](O)[C@H](O)[C@H]4O)cc(O)c3c(=O)c2O[C@@H]2O[C@@H](C)[C@H](O)[C@@H](O)[C@H]2O)cc1 [Compound 34, icariin]
Hey, between 1 and 2 which has a smaller measured pIC50? Let me know the label of the one you choose.
1
(1: 3.54, 2: 3.82)

---

Form field: pKi (one value per entry).
target: mushroom tyrosinase (Agaricus bisporus, UniProt C7FF04); experiment: Tyrosinase inhibition kinetic analysis (Lineweaver-Burk and Dixon plots); format: biochemical
Field pKi (float): negative decimal logarithm of the concentration in molar.

O=C(/C=C/c1ccc(O)cc1)OC[C@H]1O[C@@H](Oc2c(-c3ccc(O)cc3)oc3cc(O)cc(O)c3c2=O)[C@H](O)[C@@H](O)[C@@H]1O    5.01

# evaluate next
Given the entry O=c1c(O)c(-c2cc(O)c(O)c(O)c2)oc2cc(O)ccc12 , what pKi was observed with mushroom tyrosinase (Agaricus bisporus, UniProt C7FF04)?
4.56

---

molecular target: mushroom tyrosinase (Agaricus bisporus, UniProt C7FF04); assay: Tyrosinase inhibition kinetic analysis (Lineweaver-Burk and Dixon plots); assay type: biochemical; conditions: L-DOPA 0.25-2 mM; inhibitor 0, 25, 50 µM; Lineweaver-Burk plots
endpoint: Type of inhibition

Worked cases, answers included:
O=C1CC(c2ccc(O)c(O)c2)Oc2c1ccc(O)c2O (stereo not drawn) [Compound 4, isookanin]    non-competitive
O=C(/C=C/c1ccc(O)cc1)OC[C@H]1O[C@@H](Oc2c(-c3ccc(O)cc3)oc3cc(O)cc(O)c3c2=O)[C@H](O)[C@@H](O)[C@@H]1O [Compound 32]    competitive
O=c1c(O)c(-c2ccc(O)cc2)oc2cc(O)cc(O)c12 [Compound 26, kaempferol]    competitive
O=c1c(O)c(-c2cc(O)c(O)c(O)c2)oc2cc(O)ccc12 [Compound 41, robinetin]    non-competitive
O=c1c(O)c(-c2ccc(O)c(O)c2)oc2cc(O)cc(O)c12 [Compound 35, quercetin]    competitive

# evaluate next
Given the entry O=c1cc(-c2ccc(O)c(O)c2)oc2cc(O)cc(O)c12 [Compound 17, luteolin] , what Type of inhibition was observed with mushroom tyrosinase (Agaricus bisporus, UniProt C7FF04)?
non-competitive

---

molecular target: mushroom tyrosinase (Agaricus bisporus, UniProt C7FF04); test: Tyrosinase inhibition assay (L-DOPA oxidation, absorbance at 492 nm); assay type: biochemical; details: substrate L-DOPA; PBS pH 6.8, 25 °C; highest tested concentration 500 µM; mean ± SD, n = 3; read-out: IC50
endpoint: pIC50
Field pIC50 (float): negative decimal logarithm of the concentration in molar.

Worked cases, answers included:
O=C(O)C1OC(Oc2c(-c3ccc(O)cc3)oc3cc(O)cc(O)c3c2=O)C(O)C(O)C1O (stereo not drawn) [Compound 30, kaempferol 3-O-glucuronide]    3.57
O=C1CC(c2ccc(O)c(O)c2)Oc2c1ccc(O)c2O (stereo not drawn)    4.23

So what's the measured pIC50 for this one? O=c1c(O)c(-c2ccc(O)cc2)oc2cc(O)cc(O)c12
4.19

---

target: mushroom tyrosinase (Agaricus bisporus, UniProt C7FF04); test: Tyrosinase inhibition assay (L-DOPA oxidation, absorbance at 492 nm); format: biochemical; conditions: substrate L-DOPA; PBS pH 6.8, 25 °C; highest tested concentration 500 µM; mean ± SD, n = 3; read-out: IC50;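 also: enzyme in phosphate buffer, compounds preincubated with enzyme, inhibition computed against blank absorbance, IC50 fitted by nonlinear regression, runs in triplicate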
pIC50: −log10 of the molar value.
Form field: pIC50 (one value per entry).

COc1cc(-c2cc(=O)c3c(O)cc(O)c(C4OC[C@@H](O)[C@H](O)[C@H]4OC4O[C@H](CO)[C@@H](OC(C)=O)[C@H](O)[C@H]4O)c3o2)ccc1OC(C)=O (stereo partly drawn) [Compound 25]    < 3.30

Given the entry COc1cc(O)c2c(=O)c(OC)c(-c3ccc(O)cc3)oc2c1 [Compound 28, kumatakenin] , what pIC50 was observed with mushroom tyrosinase (Agaricus bisporus, UniProt C7FF04)?
< 3.30

COc1ccc(-c2cc(=O)c3c(O)cc(O)c(C4OC[C@@H](O)[C@H](O)[C@H]4OC4O[C@H](CO)[C@@H](O)[C@H](O)[C@H]4O)c3o2)cc1O (stereo partly drawn) [Compound 22] ?
< 3.30
